These measurements were taken from BindingDB's records for PubMed 30559935.

# ASSAY_SUMMARY: Inhibition of EZH2 in human EPN8 cells assessed as reduction in cell viability incubated for 120 hrs by MTT assay
MEASURED_ATTRIBUTE: pIC50
Expect pIC50 as a plain number equal to -log10 of the molar concentration.

Answer with the recorded pIC50 of `CCCc1cc(C)[nH]c(=O)c1CNC(=O)c1cc(-c2ccnc(N3CCN(C)CC3)c2)cc2c1cnn2C(C)C` only.
4.70

* * *

# ASSAY_SUMMARY: Inhibition of EZH2 in human BXD-1425EPN cells assessed as reduction in cell viability incubated for 120 hrs by MTT assay
MEASURED_ATTRIBUTE: IC50 (µM)
Form entry: value (µM) — number only.

Answer with the recorded IC50 of `CCCc1cc(C)[nH]c(=O)c1CNC(=O)c1cc(-c2ccnc(N3CCN(C)CC3)c2)cc2c1cnn2C(C)C` only.
16
